- target entity: Tyrosine-protein phosphatase non-receptor type 1 (Homo sapiens)
- Sequence (whole entry): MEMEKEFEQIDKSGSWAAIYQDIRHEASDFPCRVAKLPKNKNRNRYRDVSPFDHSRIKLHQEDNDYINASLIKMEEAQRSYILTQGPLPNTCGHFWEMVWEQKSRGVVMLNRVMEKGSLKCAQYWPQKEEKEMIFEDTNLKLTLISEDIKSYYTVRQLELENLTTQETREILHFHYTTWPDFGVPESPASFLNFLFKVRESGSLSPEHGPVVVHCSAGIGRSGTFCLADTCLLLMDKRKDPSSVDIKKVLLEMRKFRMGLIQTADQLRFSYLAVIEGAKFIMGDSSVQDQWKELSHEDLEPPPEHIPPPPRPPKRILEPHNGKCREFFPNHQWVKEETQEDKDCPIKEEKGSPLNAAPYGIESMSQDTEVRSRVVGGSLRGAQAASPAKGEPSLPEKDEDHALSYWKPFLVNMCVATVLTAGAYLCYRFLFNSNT
- assay overview: Inhibition of PTP1B (unknown origin) expressed in Escherichia coli expression system using p-nitrophenyl phosphate as substrate assessed as release of p-nitrophenol at 10 ug/mL incubated for 10 mins prior to substrate addition measured after 30 mins relative to control
Known Imax of a selection of compounds
# unit: % | format: bare number

Worked examples, 3 compounds total:
compound smiles	Imax (%)
CC1(C)CC[C@@]23CC[C@]4(C)[C@@](OC2=O)([C@@H]3C1)[C@@H](O)C[C@@H]1[C@@]2(C)CC[C@H](O[C@@H]3O[C@H](C(=O)O)[C@@H](O)[C@H](O)[C@H]3O)C(C)(C)[C@@H]2CC[C@]14C	16.1
COC(=O)CCCCCNC(=O)[C@]12CCC(C)(C)C[C@H]1C1=CC[C@@H]3[C@@]4(C)CC[C@H](O[C@@H]5O[C@@H](C)[C@@H](O)[C@@H](O)[C@@H]5O)C(C)(C)[C@@H]4CC[C@@]3(C)[C@]1(C)CC2	1.91
COC(=O)CCCCCNC(=O)[C@]12CCC(C)(C)C[C@H]1C1=CC[C@@H]3[C@@]4(C)CC[C@H](O[C@@H]5O[C@H](CO)[C@@H](O[C@@H]6O[C@H](CO)[C@H](O)[C@H](O)[C@H]6O)[C@H](O)[C@H]5O)C(C)(C)[C@@H]4CC[C@@]3(C)[C@]1(C)CC2	3.87

Reported Imax ( `COC(=O)CCCCCNC(=O)[C@]12CCC(C)(C)C[C@H]1C1=CC[C@@H]3[C@@]4(C)CC[C@H](O[C@@H]5O[C@H](C(=O)O)[C@@H](O)[C@H](O)[C@H]5O)C(C)(C)[C@@H]4CC[C@@]3(C)[C@]1(C)CC2` ) = 11.8

Reported Imax ( `COC(=O)CCCCCNC(=O)[C@]12CCC(C)(C)C[C@H]1C1=CC[C@@H]3[C@@]4(C)CC[C@H](O[C@H]5O[C@H](C(=O)OC)[C@@H](O)[C@H](O)[C@@H]5O)C(C)(C)[C@@H]4CC[C@@]3(C)[C@]1(C)CC2` ) = 81.9

Reported Imax ( `COC(=O)CCCCCNC(=O)[C@]12CCC(C)(C)C[C@H]1C1=CC[C@@H]3[C@@]4(C)CC[C@H](O)C(C)(C)[C@@H]4CC[C@@]3(C)[C@]1(C)CC2` ) = 4.89

----------
- target entity: Tyrosine-protein phosphatase non-receptor type 1 (Homo sapiens) (UniProt P18031)
- Sequence (whole entry): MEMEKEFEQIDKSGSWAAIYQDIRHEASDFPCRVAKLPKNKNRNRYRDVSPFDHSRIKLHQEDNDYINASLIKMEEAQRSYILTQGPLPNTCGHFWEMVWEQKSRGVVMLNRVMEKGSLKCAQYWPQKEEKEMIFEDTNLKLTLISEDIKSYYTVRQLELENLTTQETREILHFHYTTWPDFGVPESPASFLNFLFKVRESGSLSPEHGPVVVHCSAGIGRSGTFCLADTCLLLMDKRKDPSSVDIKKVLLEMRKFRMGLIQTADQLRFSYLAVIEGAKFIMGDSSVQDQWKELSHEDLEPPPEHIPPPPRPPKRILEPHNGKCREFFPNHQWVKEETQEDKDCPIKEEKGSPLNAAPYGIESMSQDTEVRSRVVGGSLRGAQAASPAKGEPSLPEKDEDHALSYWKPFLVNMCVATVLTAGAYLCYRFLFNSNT
- assay overview: Inhibition of PTP1B (unknown origin) expressed in Escherichia coli expression system using p-nitrophenyl phosphate as substrate assessed as release of p-nitrophenol at 10 ug/mL incubated for 10 mins prior to substrate addition measured after 30 mins relative to control
measure: Imax
Answers without a unit are incomplete; give the number and then its unit.

Worked examples, 2 compounds total:
compound smiles	Imax
CC1(C)CC[C@]2(C(=O)NCCCCCC(=O)O)CC[C@]3(C)C(=CC[C@@H]4[C@@]5(C)CC[C@H](O[C@@H]6O[C@H](CO)[C@@H](O)[C@H](O)[C@H]6O)C(C)(C)[C@@H]5CC[C@]43C)[C@@H]2C1	57.6%
COC(=O)CCCCCNC(=O)[C@]12CCC(C)(C)C[C@H]1C1=CC[C@@H]3[C@@]4(C)CC[C@H](O[C@@H]5O[C@H](C(=O)OC)[C@@H](O)[C@H](O)[C@H]5O)C(C)(C)[C@@H]4CC[C@@]3(C)[C@]1(C)CC2	36.7%

Reported Imax ( `CC1(C)CC[C@]2(C(=O)NCCCCCC(=O)O)CC[C@]3(C)C(=CC[C@@H]4[C@@]5(C)CC[C@H](O[C@@H]6O[C@H](CO)[C@@H](O[C@@H]7O[C@H](CO)[C@H](O)[C@H](O)[C@H]7O)[C@H](O)[C@H]6O)C(C)(C)[C@@H]5CC[C@]43C)[C@@H]2C1` ) = 83.7%

----------
- target entity: Tyrosine-protein phosphatase non-receptor type 1 (Homo sapiens)
- assay overview: Inhibition of PTP1B (unknown origin) expressed in Escherichia coli expression system using p-nitrophenyl phosphate as substrate assessed as release of p-nitrophenol at 10 ug/mL incubated for 10 mins prior to substrate addition measured after 30 mins relative to control
measure: Imax (%)
# unit: % | format: bare number

Worked examples, 2 compounds total:
compound smiles	assay value
CC1(C)CC[C@]2(C(=O)NCCCCCC(=O)O)CC[C@]3(C)C(=CC[C@@H]4[C@@]5(C)CC[C@H](O[C@H]6O[C@H](CO)[C@@H](O)[C@H](O)[C@@H]6O)C(C)(C)[C@@H]5CC[C@]43C)[C@@H]2C1	57
CC(=O)N[C@H]1[C@H]([C@H](O)[C@H](O)CO)O[C@](O[C@H]2CC[C@]3(C)[C@H]4CC=C5[C@@H]6CC(C)(C)CC[C@]6(C(=O)NCCCCCC(=O)O)CC[C@@]5(C)[C@]4(C)CC[C@H]3C2(C)C)(C(=O)O)C[C@@H]1O	69

Reported Imax ( `C[C@@H]1O[C@@H](O[C@H]2CC[C@]3(C)[C@H]4C[C@H](O)[C@]56OC(=O)[C@@]7(CCC(C)(C)C[C@H]75)CC[C@@]6(C)[C@]4(C)CC[C@H]3C2(C)C)[C@@H](O)[C@H](O)[C@@H]1O` ) = -1.55

# credit: ChEMBL document CHEMBL2375238
